Item-by-item account of hERG current change (%, negative = inhibition) at 10uM
# Subject of test: human ether-à-go-go-related gene (hERG) potassium channel (human, UniProt Q12809)
# Sequence (Q12809 whole entry, looked up): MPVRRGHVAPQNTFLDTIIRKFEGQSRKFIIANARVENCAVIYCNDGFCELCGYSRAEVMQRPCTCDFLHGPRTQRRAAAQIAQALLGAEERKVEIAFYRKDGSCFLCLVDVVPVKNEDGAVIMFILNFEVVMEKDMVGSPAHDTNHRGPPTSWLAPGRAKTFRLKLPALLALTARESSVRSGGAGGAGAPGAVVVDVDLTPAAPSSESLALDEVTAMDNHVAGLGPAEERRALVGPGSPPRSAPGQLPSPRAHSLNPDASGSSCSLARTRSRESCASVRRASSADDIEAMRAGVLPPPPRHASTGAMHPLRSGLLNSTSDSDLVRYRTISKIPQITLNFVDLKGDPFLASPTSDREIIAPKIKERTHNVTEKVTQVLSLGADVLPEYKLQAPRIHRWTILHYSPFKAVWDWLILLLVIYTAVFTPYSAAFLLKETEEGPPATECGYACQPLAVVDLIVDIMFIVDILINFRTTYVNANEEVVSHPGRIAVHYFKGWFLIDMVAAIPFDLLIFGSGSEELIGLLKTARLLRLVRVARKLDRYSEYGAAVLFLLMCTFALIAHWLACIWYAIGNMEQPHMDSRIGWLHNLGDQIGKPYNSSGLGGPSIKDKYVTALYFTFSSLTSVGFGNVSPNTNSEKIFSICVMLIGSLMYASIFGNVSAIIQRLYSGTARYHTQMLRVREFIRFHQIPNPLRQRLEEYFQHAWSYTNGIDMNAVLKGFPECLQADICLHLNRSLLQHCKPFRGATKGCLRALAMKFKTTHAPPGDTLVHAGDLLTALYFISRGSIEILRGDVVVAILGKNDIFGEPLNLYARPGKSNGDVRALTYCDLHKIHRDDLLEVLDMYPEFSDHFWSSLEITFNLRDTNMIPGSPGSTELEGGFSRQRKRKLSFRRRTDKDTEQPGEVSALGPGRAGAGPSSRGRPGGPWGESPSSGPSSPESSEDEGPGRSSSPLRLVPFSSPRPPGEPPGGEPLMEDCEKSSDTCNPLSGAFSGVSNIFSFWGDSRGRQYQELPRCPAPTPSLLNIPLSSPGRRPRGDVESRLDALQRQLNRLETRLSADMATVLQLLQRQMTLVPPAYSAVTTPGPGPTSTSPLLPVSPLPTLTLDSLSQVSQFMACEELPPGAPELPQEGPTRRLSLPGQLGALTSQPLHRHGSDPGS
# Assay protocol: primary screen, population patch clamp on CHO cells stably expressing hERG; higher = less effect of the substance;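 also: peak tail current of the secondary pulse compared with the same well before compound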
The whole screen tested about 310,000 compounds, of which about 14,000 (4.5%) showed an effect of 50% or more. The effect is printed as a negative number. This excerpt belongs to a sample that is enriched for strong results.
# number only, unit % dropped from output

As a guide, the following entries are already answered.
Compound	Measured result
C=CCNCCCCOc1ccc(Br)cc1C.O=C(O)C(=O)O	-41
COc1ccc(CNC(=O)CN(C)Cc2ccc(C(C)(C)C)cc2)cc1.O=C(O)C(=O)O	-4.44
CCOC(=O)NC(c1ccc(C(C)C)cc1)C(Cl)(Cl)Cl (centres unmarked)	1.44
COCCn1nnnc1C(c1ccc(OC)c(OC)c1)N1CCN(c2nc3ccccc3s2)CC1 (centres unmarked)	-56.3
Cc1cc(Br)ccc1OCCCCNC(C)(C)C.O=C(O)C(=O)O	-53.9

[Q] Entry COCCNCCCOc1ccc(Br)cc1Cl.O=C(O)C(=O)O has what hERG current change (%, negative = inhibition) at 10uM?
[A] -31.8

[Q] What about CC1CCCN(CC(=O)N2c3ccccc3Sc3ccccc32)C1 (centres unmarked) ?
[A] 1.98

[Q] What about CC1=C(C(=O)OC2CCC(C)CC2)C(c2ccc(O)c([N+](=O)[O-])c2)NC(=O)N1 (centres unmarked) ?
[A] -0.635

Attribution: paper PMC4336329
